Target: Chromo domain-containing protein 1 (Saccharomyces cerevisiae (strain ATCC 204508 / S288c) (Baker's yeast)) (UniProt P32657)
Sequence (P32657 whole entry, the tested form may be a part): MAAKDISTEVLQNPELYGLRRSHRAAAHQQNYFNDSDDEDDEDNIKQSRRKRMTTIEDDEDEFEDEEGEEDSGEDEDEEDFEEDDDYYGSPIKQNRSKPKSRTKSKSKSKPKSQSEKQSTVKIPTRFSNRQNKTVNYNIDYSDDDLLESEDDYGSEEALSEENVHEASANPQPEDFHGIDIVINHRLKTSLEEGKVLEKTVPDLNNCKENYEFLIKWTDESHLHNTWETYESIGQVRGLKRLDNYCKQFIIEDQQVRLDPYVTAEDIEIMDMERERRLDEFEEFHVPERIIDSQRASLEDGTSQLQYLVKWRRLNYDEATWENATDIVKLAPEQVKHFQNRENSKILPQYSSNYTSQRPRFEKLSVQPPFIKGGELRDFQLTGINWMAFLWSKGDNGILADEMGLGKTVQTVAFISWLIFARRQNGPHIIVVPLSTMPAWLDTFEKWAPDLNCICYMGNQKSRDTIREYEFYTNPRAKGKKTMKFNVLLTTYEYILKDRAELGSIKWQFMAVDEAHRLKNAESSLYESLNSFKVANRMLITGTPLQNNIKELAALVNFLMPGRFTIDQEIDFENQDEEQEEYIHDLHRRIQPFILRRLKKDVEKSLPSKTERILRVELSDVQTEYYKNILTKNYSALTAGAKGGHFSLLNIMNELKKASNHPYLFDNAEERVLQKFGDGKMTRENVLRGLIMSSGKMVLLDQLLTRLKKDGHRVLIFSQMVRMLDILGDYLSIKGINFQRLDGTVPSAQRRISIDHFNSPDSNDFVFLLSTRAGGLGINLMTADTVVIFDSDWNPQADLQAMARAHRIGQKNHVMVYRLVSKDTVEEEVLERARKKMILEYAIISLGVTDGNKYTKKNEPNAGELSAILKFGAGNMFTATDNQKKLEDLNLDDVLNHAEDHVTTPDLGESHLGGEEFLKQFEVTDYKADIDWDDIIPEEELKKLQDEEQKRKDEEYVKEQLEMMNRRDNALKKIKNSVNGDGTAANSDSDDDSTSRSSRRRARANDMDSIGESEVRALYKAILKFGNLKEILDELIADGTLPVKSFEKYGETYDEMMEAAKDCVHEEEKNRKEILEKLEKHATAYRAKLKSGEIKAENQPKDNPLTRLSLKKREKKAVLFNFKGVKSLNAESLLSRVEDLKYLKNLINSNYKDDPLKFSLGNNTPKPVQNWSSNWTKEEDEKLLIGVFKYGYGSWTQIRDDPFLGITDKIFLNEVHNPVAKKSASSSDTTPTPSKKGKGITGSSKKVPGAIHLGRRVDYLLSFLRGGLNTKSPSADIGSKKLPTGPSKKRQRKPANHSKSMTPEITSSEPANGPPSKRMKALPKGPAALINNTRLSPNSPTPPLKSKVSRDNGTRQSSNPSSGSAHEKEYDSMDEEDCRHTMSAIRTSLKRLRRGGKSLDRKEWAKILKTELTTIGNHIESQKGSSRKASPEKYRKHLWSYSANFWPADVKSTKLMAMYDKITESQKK
Assay: ScCHD-1 Enzyme Inhibition Assay
Format: functional
Design: scale not given: in the data most compounds retested in dose-response had high values
Conditions: 30 µM
PROPERTY NAME: Percent Effect (%)
One number for each entry, in %.

CC(Cn1ccnc1)NC(=O)N1CCN(Cc2cccnc2)CC1 (stereo not drawn)
-10.3
Cc1cc(CN(C)C(=O)NCc2cccc(N3CCCC3=O)c2)no1
-1.62
Cc1cc(C(=O)NCc2ccnc(N3CCN(C)CC3)c2)c(C)s1
-3.48
CN(Cc1ccon1)C(=O)C1CC(=O)N(Cc2ccncc2)C1 (stereo not drawn)
-4.6
Cn1cnnc1S(=O)(=O)C1CCN(S(=O)(=O)c2ccc(F)c(Cl)c2)CC1
-1.74
CN(C)C[C@H]1OC[C@@H]2CCN(S(=O)(=O)c3ccccc3)C[C@@H]21
-2.54

# map each compound to its Percent Effect
1. Cc1cc(C)n(CC2CCCN2CC(=O)N(C)Cc2cnn(C)c2)n1 (stereo not drawn)
2. CC(=O)N1CCCn2nc(CNS(=O)(=O)c3cc(C)cs3)cc2C1

**A:**
[-11.6, 3.74]
